Molecular target: UniProt:O95271
Sequence (O95271 1-1327): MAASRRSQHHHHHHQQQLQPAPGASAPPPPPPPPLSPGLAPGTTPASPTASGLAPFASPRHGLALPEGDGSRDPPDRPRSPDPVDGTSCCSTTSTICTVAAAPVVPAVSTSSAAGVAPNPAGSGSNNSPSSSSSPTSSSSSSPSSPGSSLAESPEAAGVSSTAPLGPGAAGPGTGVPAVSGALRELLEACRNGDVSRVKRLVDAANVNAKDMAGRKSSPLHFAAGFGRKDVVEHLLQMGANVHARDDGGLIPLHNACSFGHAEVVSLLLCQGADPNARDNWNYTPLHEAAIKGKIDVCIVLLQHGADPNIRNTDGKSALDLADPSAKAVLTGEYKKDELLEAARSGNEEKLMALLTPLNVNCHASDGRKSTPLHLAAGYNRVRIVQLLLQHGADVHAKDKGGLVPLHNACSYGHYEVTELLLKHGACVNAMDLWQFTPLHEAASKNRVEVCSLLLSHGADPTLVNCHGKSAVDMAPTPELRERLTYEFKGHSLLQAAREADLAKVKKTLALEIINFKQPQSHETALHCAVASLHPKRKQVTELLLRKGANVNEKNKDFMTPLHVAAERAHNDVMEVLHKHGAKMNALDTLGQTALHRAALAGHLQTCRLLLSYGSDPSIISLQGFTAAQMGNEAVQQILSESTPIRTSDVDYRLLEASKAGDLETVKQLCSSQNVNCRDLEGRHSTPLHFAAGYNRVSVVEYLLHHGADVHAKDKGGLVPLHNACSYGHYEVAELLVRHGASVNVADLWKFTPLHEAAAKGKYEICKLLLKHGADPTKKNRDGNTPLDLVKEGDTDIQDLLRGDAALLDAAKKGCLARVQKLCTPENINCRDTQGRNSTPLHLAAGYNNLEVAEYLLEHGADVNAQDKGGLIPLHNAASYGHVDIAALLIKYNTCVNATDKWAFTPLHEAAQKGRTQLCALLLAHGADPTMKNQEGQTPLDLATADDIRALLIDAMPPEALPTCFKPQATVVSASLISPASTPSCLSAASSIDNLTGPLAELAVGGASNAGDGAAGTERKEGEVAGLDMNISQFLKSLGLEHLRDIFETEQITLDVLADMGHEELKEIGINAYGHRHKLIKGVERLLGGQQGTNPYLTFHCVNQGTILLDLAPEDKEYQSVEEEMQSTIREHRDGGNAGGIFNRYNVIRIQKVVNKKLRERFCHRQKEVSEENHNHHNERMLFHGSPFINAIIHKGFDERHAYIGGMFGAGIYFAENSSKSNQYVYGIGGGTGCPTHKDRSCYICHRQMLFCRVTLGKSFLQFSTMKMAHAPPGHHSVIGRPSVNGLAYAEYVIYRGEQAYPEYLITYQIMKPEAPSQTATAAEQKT
pIC50: −log10 of the molar value.
Property measured: pIC50

Requested read-out: pIC50. Entry: CNC(=O)c1[nH]cnc1C(=O)NC1CCC(C(=O)Nc2ccc(F)cc2Cl)CC1OC (stereo not drawn) [Example 36]
< 5.00

Which pIC50 is listed for CNC(=O)c1[nH]cnc1C(=O)NC1CCC(F)(C(=O)Nc2ccc(F)cc2Cl)CC1 (single isomer, unassigned) ?
< 5.00

Find the recorded pIC50 belonging to "C[C@]1(C(=O)Nc2ccc(F)cc2Cl)CC[C@@H](NC(=O)c2cnn3cccnc23)CC1" and report it.
< 5.00
